// provenance: PubChem BioAssay (NCI)

Measurement Description: NCI Yeast Anticancer Drug Screen. Data for the mlh1 rad18 strain (AID 175)
Test Context: S. cerevisiae mlh1 rad18 strain growth inhibition; at 50.0 µM
The panel holds about 79,000 compounds, 15% with a hit somewhere; the sample as a whole holds those more often. Calls of active or inactive are those of the source. Cut-off read from the data, not from the text of the source: active = growth inhibition above about 70%; inactive = the rest.
Labels: active, inactive

- Compound: "COc1ccc(OC)c(C(N)=O)c1"
  Qualitative Label: "inactive"
- Compound: "CC1(C)OC(C)(C)c2c1nnc(-c1ccccc1[N+](=O)[O-])[n+]2[O-]"
  Qualitative Label: "inactive"
- Compound: "CCN(CC)CCC(CN(C)C)C(C)O (configuration not stated)"
  Qualitative Label: "inactive"
- Compound: "CC1CN(C(=O)/C=C/C(=O)OC2CCCCC2)C(C)CN1C(=O)/C=C/C(=O)OC1CCCCC1 (configuration not stated)"
  Qualitative Label: "inactive"
- Compound: "O=c1c[n+](-c2ccccc2)[nH]o1"
  Qualitative Label: "inactive"
- Compound: "O=C1C2CCOC2N=C2CCCN12 (configuration not stated)"
  Qualitative Label: "inactive"
- Compound: "CC(=O)OC(C)(C)c1ccc2c(c1)C(=O)C[C@@H]1[C@](C)(C#N)CCC[C@]21C"
  Qualitative Label: "inactive"
- Compound: "Cc1c(C)n(C)c(=S)n(C)c1=S"
  Qualitative Label: "inactive"
- Compound: "N#C/C(=C/NC(=S)Nc1ccc(S(N)(=O)=O)cc1)C(N)=O"
  Qualitative Label: "inactive"
- Compound: "Nc1nc(-c2cc(Br)ccc2N=NN2CCOCC2)nc2ccc(Br)cc12"
  Qualitative Label: "active"
- Compound: "O=C(O)c1ccc(C(=O)c2ccccc2C(=O)O)cc1C(=O)O"
  Qualitative Label: "inactive"
- Compound: "Nc1nc(SCC(=O)c2ccc(F)cc2)sc1C(=O)c1ccc(F)cc1"
  Qualitative Label: "inactive"

---

Measurement Description: NCI Yeast Anticancer Drug Screen. Data for the mlh1 rad18 strain (AID 175)
Test Context: S. cerevisiae mlh1 rad18 strain growth inhibition; at 50.0 µM
About 79,000 compounds went through this panel and 15% of them were active in at least one assay; those are over-represented in the sample as a whole. Calls of active or inactive are those of the source. Cut-off read from the data, not from the text of the source: active = growth inhibition above about 70%; inactive = the rest.
Outcome codes: active, inactive

- Molecule: "CCC(=S)Nc1ccc(Cl)cc1"
  Qualitative Label: "inactive"
- Molecule: "NC(=O)c1cc2c(c3c1CCCC3)CCCC2"
  Qualitative Label: "inactive"
- Molecule: "CCOC(CN=C=S)OCC"
  Qualitative Label: "inactive"
- Molecule: "O=C1c2ccccc2C(=O)c2c1ccc(C1C(=O)c3ccccc3C1=O)c2-c1c(C2C(=O)c3ccccc3C2=O)ccc2c1C(=O)c1ccccc1C2=O"
  Qualitative Label: "inactive"
- Molecule: "CC(=O)/C(C=Nc1c(C)n(C)n(C)c1=O)=C(/O)c1ccccc1"
  Qualitative Label: "inactive"
- Molecule: "CC1(C)COC(=O)OC1"
  Qualitative Label: "inactive"
- Molecule: "O=CNC(Cc1ccccc1)c1ccc(OCc2ccccc2)cc1 (configuration not stated)"
  Qualitative Label: "inactive"
- Molecule: "CC(=O)n1c(N)nc2ccccc21"
  Qualitative Label: "inactive"
- Molecule: "O=P(Nc1ccc(Cl)cc1)(c1ccc(Cl)cc1)c1ccc(Cl)cc1"
  Qualitative Label: "inactive"
- Molecule: "CCCC[Si](C)(C)CCCC"
  Qualitative Label: "inactive"
- Molecule: "CC(C)(CCC(=O)O)C(=O)O"
  Qualitative Label: "inactive"
- Molecule: "NC(=O)C(Br)Cc1cccc(Cl)c1 (configuration not stated)"
  Qualitative Label: "inactive"
- Molecule: "CCOC(=O)NNC(=O)c1ccccc1N(C)C"
  Qualitative Label: "inactive"
- Molecule: "COc1ccc(/C=C2\\CCC(C)(CN(C)C)C2=O)cc1 (configuration not stated)"
  Qualitative Label: "inactive"
- Molecule: "C=C(C)/C=N/NS(=O)(=O)c1ccc(C)cc1"
  Qualitative Label: "inactive"
- Molecule: "COc1cc(-c2cc(OC)c(N)cc2Br)c(Br)cc1N"
  Qualitative Label: "inactive"
- Molecule: "CC1(C)NC(=O)N(CCCCCCN2C(=O)NC(C)(C)C2=O)C1=O"
  Qualitative Label: "inactive"
- Molecule: "CC(c1ccccc1)N1OC1(c1ccccc1)c1ccccc1 (configuration not stated)"
  Qualitative Label: "active"
- Molecule: "CCOC(=O)CCCCCC(=O)OCC"
  Qualitative Label: "inactive"
- Molecule: "CCCCNS(=O)(=O)c1n[nH]c(=O)[nH]c1=O"
  Qualitative Label: "inactive"
- Molecule: "CC(C)(C)NC(=O)Oc1ccc(Br)cc1Br"
  Qualitative Label: "inactive"
- Molecule: "CCN(Cc1cc(Cl)cc(C)c1O)Cc1c(O)ccc2ccccc12"
  Qualitative Label: "active"
- Molecule: "CC1(c2ccc(Cl)cc2)NC(=O)NC1=O (configuration not stated)"
  Qualitative Label: "inactive"
- Molecule: "c1ccc(Cc2nnc3n2CCC(c2ccccc2)S3)cc1 (configuration not stated)"
  Qualitative Label: "inactive"
- Molecule: "COCCCC(O)CNC(C)C (configuration not stated)"
  Qualitative Label: "inactive"
- Molecule: "N/C(=N\\C(=O)OCCOC(=O)/N=C(/N)c1ccccc1)c1ccccc1"
  Qualitative Label: "inactive"
- Molecule: "CC(=O)Nc1ccc2cc(-c3ccc(Cl)cc3)c3nnnn3c2n1"
  Qualitative Label: "inactive"
- Molecule: "CCOc1ccccc1/C=C1\\NC(=O)NC1=O"
  Qualitative Label: "inactive"
- Molecule: "Cc1ccc(NC(=S)N2CCCCC2C)cc1C (configuration not stated)"
  Qualitative Label: "inactive"
- Molecule: "CC(C)(C)NC(=S)N/N=C/c1ccccn1"
  Qualitative Label: "active"
- Molecule: "CCC(C)(O)Cc1ccccc1Cl (configuration not stated)"
  Qualitative Label: "inactive"
- Molecule: "CCCCCCCCCCCCCCCCCC(=O)NCC[N+](C)(C)C"
  Qualitative Label: "active"
- Molecule: "O=C1CCC2=C3C4CCCC5OC6CC(=O)CCC6=C(C6CCCC(OC2C1)C36)C54 (configuration not stated)"
  Qualitative Label: "inactive"
- Molecule: "COC(=O)C(C)C1Sc2ccccc2NC1=O (configuration not stated)"
  Qualitative Label: "inactive"
- Molecule: "CCOC(=O)C1NC(=O)C(C(=O)OCC)C1C(C)C (configuration not stated)"
  Qualitative Label: "inactive"
- Molecule: "O=Cc1cccc(/C=N/Nc2nnc(N/N=C/c3cccc(C=O)c3)c3ccccc23)c1"
  Qualitative Label: "inactive"
- Molecule: "O=CC(CO)CC(C=O)n1cnc2c(=O)[nH]cnc21 (configuration not stated)"
  Qualitative Label: "inactive"
- Molecule: "O=C[c-]1[c-][c-][c-][c-]1.[Fe+2].[c-]1[c-][c-][cH-][c-]1"
  Qualitative Label: "inactive"
- Molecule: "N#Cc1nc(COCc2ccccc2)oc1N"
  Qualitative Label: "inactive"
- Molecule: "CC(C)c1ccc(OC(=O)Nc2c(Cl)cccc2Cl)cc1"
  Qualitative Label: "inactive"
- Molecule: "Cc1ccc2c(c1)C(c1ccccc1)(c1ccccc1)OC2"
  Qualitative Label: "inactive"
- Molecule: "O=C(Nc1ccccc1)SC1CCCCC1"
  Qualitative Label: "inactive"
- Molecule: "Nc1c2c(nn1-c1ccccc1)C(=O)N(CCc1ccccc1)C2"
  Qualitative Label: "inactive"
- Molecule: "CC(C)C1CCC(C)(C(=O)Oc2ccccc2-c2ccccc2)C1 (configuration not stated)"
  Qualitative Label: "inactive"
- Molecule: "O=S(=O)(O)ON=C1c2ccccc2-c2ccccc21"
  Qualitative Label: "inactive"
- Molecule: "CC/C=N/NC(=O)OCC"
  Qualitative Label: "inactive"
- Molecule: "Cc1onc(-c2ccccc2)c1NC(=O)OC(C)c1cccnc1 (configuration not stated)"
  Qualitative Label: "inactive"
- Molecule: "C/C=C(/C)C(C#N)(CCC)C(=O)OCC (configuration not stated)"
  Qualitative Label: "inactive"
- Molecule: "O=C(O)CCNC(=O)c1ccccc1O"
  Qualitative Label: "inactive"
- Molecule: "CCCCCCCCCC1CC(=O)OC23CCCC(=O)C12O3 (configuration not stated)"
  Qualitative Label: "inactive"
- Molecule: "CCOC(=O)C(C#N)CCC(C)=O (configuration not stated)"
  Qualitative Label: "inactive"
- Molecule: "O=c1ccn(C2OC(CO)C(O)C2Cl)c(=O)[nH]1 (configuration not stated)"
  Qualitative Label: "inactive"

---

Measurement Description: NCI Yeast Anticancer Drug Screen. Data for the cln2 rad14 strain (AID 165)
Test Context: S. cerevisiae cln2 rad14 strain, at 50.0 µM
This is part of a sample that, as a whole, favours compounds with a hit. Of some 79,000 tested, about 15% had one in any assay. The source made the active and inactive calls. No stated cut-off is given here; in the data, active means growth inhibition above about 70%; inactive means the rest.
Possible outcomes: active, inactive

- Molecule: "CCOC(=O)CCCCC(N)=O"
  Qualitative Label: "inactive"
- Molecule: "CNC(=O)NCCc1c[nH]c2ccccc12"
  Qualitative Label: "inactive"
- Molecule: "O=S(=O)(N/N=C(/CC/C(=N\\NS(=O)(=O)c1ccccc1)c1ccccc1)c1ccccc1)c1ccccc1"
  Qualitative Label: "inactive"
- Molecule: "O=[N+]([O-])c1ccc(Nc2ccccc2)c([N+](=O)[O-])c1"
  Qualitative Label: "inactive"
- Molecule: "CCOc1ccc2nc(NC(=O)C(=O)C3C(=O)C(CC4C(=O)c5ccccc5C4=O)C(=O)CC3(C)C)sc2c1 (stereo unspecified)"
  Qualitative Label: "inactive"
- Molecule: "CC(=O)NC1CC(=O)N(c2ccccc2)C1=O (stereo unspecified)"
  Qualitative Label: "inactive"
- Molecule: "CN1C(=O)N(C)C2=NC(=O)N(C)C2(C(Cl)(Cl)Cl)C1=O (stereo unspecified)"
  Qualitative Label: "inactive"
- Molecule: "N#CCOc1ccc(/C=C/C(=O)c2ccc(Cl)cc2)cc1"
  Qualitative Label: "inactive"
- Molecule: "O=c1c(O)c(-c2ccccc2)oc2cc(O)cc(O)c12"
  Qualitative Label: "inactive"
- Molecule: "CCCCSc1n[nH]c(=O)nc1N"
  Qualitative Label: "inactive"
- Molecule: "CCCCCCCCCCCCSSC(=S)OC(C)C"
  Qualitative Label: "inactive"
- Molecule: "Cc1cc(NS(=O)(=O)c2ccc(NC(NC(=O)C(C(F)(F)F)C(F)(F)F)(C(F)(F)F)C(F)(F)F)cc2)no1"
  Qualitative Label: "inactive"
- Molecule: "Cc1c(C)n(COCCO)c2ncnc(N)c12"
  Qualitative Label: "inactive"
- Molecule: "COC(=O)[C@@H](CO)NC(=O)OC(C)(C)C"
  Qualitative Label: "inactive"
- Molecule: "NCc1ccccc1[N+](=O)[O-]"
  Qualitative Label: "inactive"
- Molecule: "Cc1ccc(NC(=O)Oc2ccc(Br)cc2)c([N+](=O)[O-])c1"
  Qualitative Label: "inactive"
- Molecule: "O=[N+]([O-])c1ccc(Cl)c(C=NC23CC4CC(CC(C4)C2)C3)c1"
  Qualitative Label: "inactive"
- Molecule: "O=C(CC(=O)Nc1ccccc1)N/N=C/c1cc(N=Nc2ccc(Br)cc2)ccc1O"
  Qualitative Label: "inactive"
- Molecule: "N#CC(C(N)=O)C(CC(=O)c1ccccc1)c1ccccc1 (stereo unspecified)"
  Qualitative Label: "inactive"
- Molecule: "O=C(OCCOc1ccc(Cl)cc1Cl)c1ccccc1O"
  Qualitative Label: "inactive"
- Molecule: "Clc1ccc(-c2c3nc(c(-c4ccc(Cl)cc4)c4ccc([nH]4)c(-c4ccc(Cl)cc4)c4nc(c(-c5ccc(Cl)cc5)c5ccc2[nH]5)C=C4)C=C3)cc1"
  Qualitative Label: "inactive"
- Molecule: "CSc1cc2c(cc1[N+](=O)[O-])C(=O)c1cc(F)ccc1-2"
  Qualitative Label: "inactive"
- Molecule: "Cc1ccc(C2(O)CC(c3ccc([N+](=O)[O-])o3)=NN2C(=O)COc2ccccc2Cl)cc1 (stereo unspecified)"
  Qualitative Label: "inactive"
- Molecule: "COc1nc(NC2OC(COC(C)=O)C(OC(C)=O)C(OC(C)=O)C2OC(C)=O)c(C(=O)CCl)c(=O)[nH]1 (stereo unspecified)"
  Qualitative Label: "inactive"
- Molecule: "Cc1c(O)cc(O)c(C=O)c1C"
  Qualitative Label: "inactive"
- Molecule: "CCCCCCC(=O)O"
  Qualitative Label: "inactive"
- Molecule: "O=C(NCCCn1ccnc1[N+](=O)[O-])C(=O)NCCCn1ccnc1[N+](=O)[O-]"
  Qualitative Label: "inactive"
- Molecule: "O=C(Nc1ccccc1)C(=O)Nc1ccccc1"
  Qualitative Label: "inactive"
- Molecule: "CCN(CC)C(=O)C(C(=O)OC)c1ccccc1 (stereo unspecified)"
  Qualitative Label: "inactive"
- Molecule: "CN1N(c2ccccc2)C(=O)C2=NC=C(C(=O)c3ccccc3)C(=N)C21C (stereo unspecified)"
  Qualitative Label: "inactive"
- Molecule: "COc1cc(O)c2c(c1)C(=O)C1=C(C2=O)C(O)C[C@@](C)(O)C1 (stereo partly specified)"
  Qualitative Label: "active"
- Molecule: "O=NN(CC1(O)OCC(O)C(O)C1O)C(Cc1c[nH]c2ccccc12)C(=O)O (stereo unspecified)"
  Qualitative Label: "inactive"
- Molecule: "COc1ccc(/C=C/C(=O)c2c(-c3ccccc3)nn(C)c(=O)c2N2CCCCC2)cc1"
  Qualitative Label: "inactive"
- Molecule: "COc1ccc2c(c1)C1=C(CC2)C(=O)OC1=O"
  Qualitative Label: "inactive"
- Molecule: "NC(=S)NNC(=S)NC(=O)c1ccco1"
  Qualitative Label: "inactive"
- Molecule: "O=C(/C=C\\c1ccccc1)OCC(=O)c1ccc(-c2ccccc2)cc1"
  Qualitative Label: "inactive"
- Molecule: "N#CCCN(CCC#N)c1ccc(/C=C2\\N=C(CN3C(=O)c4ccccc4C3=O)OC2=O)cc1"
  Qualitative Label: "inactive"
- Molecule: "CSc1ccc([C@@H](O)[C@H](CO)NC(=O)C(Cl)Cl)cc1"
  Qualitative Label: "inactive"
- Molecule: "CN1CCC(O)(C#N)CC1"
  Qualitative Label: "inactive"
- Molecule: "Cc1ccc(NC(=O)CCC(=O)O)cc1Cl"
  Qualitative Label: "inactive"
- Molecule: "CCCCCCCCCCCCCC(=O)CCCC"
  Qualitative Label: "inactive"
- Molecule: "Cc1nc2cc(Nc3ccccc3C(=O)O)ccc2s1"
  Qualitative Label: "inactive"
- Molecule: "CC(C)CCOC(=O)NC1c2ccccc2Oc2ccccc21"
  Qualitative Label: "inactive"
- Molecule: "COC(=O)C1=C(C)N(NC(N)=O)C2(N)N(NC(N)=O)C(C)=C(C(=O)OC)C12C(=O)OC (stereo unspecified)"
  Qualitative Label: "inactive"
- Molecule: "COc1cccc(C2N(Cc3ccccc3OC)CCCN2Cc2ccccc2OC)c1"
  Qualitative Label: "inactive"
- Molecule: "O=c1[nH]c2cc3ccccc3cc2c2ccccc12"
  Qualitative Label: "inactive"
